What Kd was measured for each of the following?
Study Target: T1, hROR2-Fc (human ROR2 Fc fusion protein) (human, UniProt Q01974 34-403, limits assumed)
T1 construct: Given both as hROR2-Fc and as Fc-hROR2, so the order of the two parts is not certain; also called Fc-hROR2; not shown: human Fc part (captured by a mouse anti-human IgG CH2 / Fcγ mAb)
Assay: SPR, Biacore X100; hROR2-Fc captured, Fab injected
# output: bare number, implied unit nM

I am curious: what Kd value has been reported for hX3.12.8 Fab (Fab, V domains shown, The text says that hX3.12.5 to hX3.12.8 all utilized VL2) VH: EQQVVESGGGLVQPGGSLRLSCAASGFSLSSYGVTWVRQAPGKGLEWVGYINTAGNTYYASWAKSRFTISRDNSKNTVYLQMNSLRAEDTAVYYCARDDRWSLNIWGQGTLVTVSS VL: DPMLTQSPSSLSASVGDRVTITCQASQSISSDLSWYQQKPGKAPKLLIYQASTLASGVPSRFKGSGYGTEYTLTISSLQPEDFATYYCLGGYADASYRTAFGGGTKLEIK ? 5.2

I am curious: what Kd value has been reported for XBR2-401-hX3.12.6 Fab (affinity matured and humanized) (Fab, V domains shown, Fab expressed in E. coli) VH: EVQLVESGGGLVQPGGSLRLSCAASGFTFSSYGVTWVRQAPGKGLEWVSYINTAGNTYYASWAKSRFTISRDNAKNSLYLQMNSLRAEDTAVYYCARDDRWSLNIWGQGTLVTVSS VL: DPMLTQSPSSLSASVGDRVTITCQASQSISSDLSWYQQKPGKAPKLLIYQASTLASGVPSRFKGSGYGTEYTLTISSLQPEDFATYYCLGGYADASYRTAFGGGTKLEIK ? 3.8
